test system: livers of male Wistar rats fed the CDAA diet; experiment: Example 2: oxidative hepatocyte injuries (8-OHdG, TBARS); assay type: in vivo, rat; settings: all doses, CDAA diet 16 weeks
readout.type: nuclear DNA 8-OHdG content increased by CDAA diet feeding

CC(C)(C)[N+]([O-])=Cc1ccc(O)cc1 [4-OHPBN, 4-hydroxyphenyl N-tert-butylnitrone]; significantly inhibited
CC(C)(C)[N+]([O-])=Cc1ccccc1 [PBN, phenyl N-tert-butyl nitrone]; significantly inhibited
CC(C)(C)[N+]([O-])=Cc1cccc(O)c1 [3-OHPBN, 3-hydroxyphenyl N-tert-butylnitrone]; significantly inhibited
